Molecular target: T1, Myo5, Q04439
T1 sequence (Q04439 1072-1160, looked up): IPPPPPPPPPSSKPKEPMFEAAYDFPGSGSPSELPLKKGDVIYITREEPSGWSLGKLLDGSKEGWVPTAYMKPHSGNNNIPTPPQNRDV
Assay: SPOT array
Settings: median of control spots 471
value.type: SPOT intensity

Below: 3 binders and their reported SPOT intensity.
>  <binder>
QRIRKIPGIPLMSVG

>  <value.type>
SPOT intensity

>  <measured.value>
7

$$$$
>  <binder>
MARRRLPDRPPNGIG

>  <value.type>
SPOT intensity

>  <measured.value>
5

$$$$
>  <binder>
LYKRKPILLPDPKPL

>  <value.type>
SPOT intensity

>  <measured.value>
1

$$$$

I. GERSRPLVISILSSA
II. PAPPPPPRASRPTPN
III. RKQRSIPLSPIVPES
IV. PLRRTVMSLPGNHDI
Write the entries in order, lowest recorded SPOT intensity first. Respond with the label ranking, as requested.
I, II, III, IV
(I: 0, II: 1, III: 2, IV: 12)
